READOUT TYPE: melting point

COMPOUND	melting point
CN1CCN(c2nc(Oc3ccccc3)c3ccccc3n2)CC1	102 to 103 °C
CCOC(=O)Cc1c(C(=O)OCC)c(C)cn1C	71 to 72 °C
CON=C(C(=O)Nc1ccc(C(=O)O)cc1)c1ccc2c(c1)C(C)(C)CCC2(C)C	208 to 209 °C
CC(C)(C)n1ncc(OCc2ccc(OCC(F)(F)C(F)F)nc2)c(Cl)c1=O	112 to 118 °C
CC1CCc2ncc(C#N)c(=O)n21 (stereo not given)	148 °C

Asked: State its melting point for this compound: CCOC(=O)c1sc2cc(OCc3ccccc3)ccc2c1Cl
Given back: 98 to 100 °C

Asked: Give melting point for CCCSc1ncc(CCC(=O)O)n1Cc1ccccc1Cl
Given back: 169 to 170 °C
